studyTarget: human EHMT1 982-1266 (Homo sapiens)
Sequence (Q9H9B1 982-1266): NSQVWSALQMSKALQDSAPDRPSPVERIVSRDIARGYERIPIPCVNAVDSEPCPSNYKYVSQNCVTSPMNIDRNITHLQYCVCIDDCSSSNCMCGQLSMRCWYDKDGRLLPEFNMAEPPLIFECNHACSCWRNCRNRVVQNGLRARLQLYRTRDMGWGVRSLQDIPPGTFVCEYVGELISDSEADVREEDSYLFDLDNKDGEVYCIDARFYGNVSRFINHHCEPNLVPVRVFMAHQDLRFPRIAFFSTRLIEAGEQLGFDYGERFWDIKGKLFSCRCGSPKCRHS
method: EHMT1 enzyme assay on histone peptide substrate (3H-SAM SPA)
testSettings: EHMT1 IC50, recombinant human EHMT1 982-1266, histone peptide substrate
pIC50: −log10 of the molar value.
Listed next: entries and their corresponding pIC50.

Query: Please tell me: pIC50 of COCCCNc1cc(C)nc(Nc2cc3c(c(C4=CCNCCC4)c2)OCC3)c1 [Compound 293] , system human EHMT1 982-1266 (Homo sapiens)?
Response: 6.30 to 7.00

Query: Please tell me: pIC50 of [2H]C([2H])([2H])Nc1cc(C)nc(Nc2cc3c(c(C4=CCN(C)CCC4)c2)OCO3)n1 [Compound 273] , system human EHMT1 982-1266 (Homo sapiens)?
Response: > 7.00

Query: Please tell me: pIC50 of CNc1cc(C)nc(Nc2cc3c(c(C4C[C@@H]5CN(C)C[C@@H]5C4)c2)OCCO3)n1 (stereo partly shown) [Compound 329] , system human EHMT1 982-1266 (Homo sapiens)?
Response: 6.30 to 7.00

Query: Please tell me: pIC50 of CNc1cc(C)nc(Nc2cc3c(c(C4=CCNCCC4)c2F)OCO3)n1 [Compound 207] , system human EHMT1 982-1266 (Homo sapiens)?
Response: > 7.00

Query: Please tell me: pIC50 of CNc1nc(Nc2cc3c(c(C4=CCN(C)CCC4)c2F)OCC3)nc(C)c1C [Compound 214] , system human EHMT1 982-1266 (Homo sapiens)?
Response: > 7.00

Query: Please tell me: pIC50 of CNc1cc(C)nc(Nc2cc3c(c(C4=CCNC(C)CC4)c2F)OCCO3)n1 (single isomer, unassigned) [Compound 163-a] , system human EHMT1 982-1266 (Homo sapiens)?
Response: 5.70 to 6.30

Query: Please tell me: pIC50 of CNc1ccnc(Nc2cc3c(c(C4=CCNCCC4)c2)OCC3)n1 [Compound 330] , system human EHMT1 982-1266 (Homo sapiens)?
Response: > 7.00

Query: Please tell me: pIC50 of CCc1c(C)nc(Nc2cc3c(c(C4=CCNCCC4)c2F)OCC3)nc1NC [Compound 212] , system human EHMT1 982-1266 (Homo sapiens)?
Response: > 7.00

Query: Please tell me: pIC50 of CNc1cc(C)nc(Nc2cc3c(c(C4=CCN(CCOC)CCC4)c2)OC(F)(F)O3)n1 [Compound 158] , system human EHMT1 982-1266 (Homo sapiens)?
Response: < 5.70

Query: Please tell me: pIC50 of [2H]Cc1nc(Nc2cc3c(c(C4=CCNCCC4)c2)OCC3)nc(NC)c1F [Compound 229] , system human EHMT1 982-1266 (Homo sapiens)?
Response: > 7.00

Query: Please tell me: pIC50 of CNc1cc(C)nc(Nc2cc(OCCCN3CCCC3)c3c(c2)OCO3)n1 [Compound 118] , system human EHMT1 982-1266 (Homo sapiens)?
Response: 6.30 to 7.00

Query: Please tell me: pIC50 of CNc1cc(C)nc(Nc2cc3c(c(C4=CCN(C)CCC4)c2)OCC3)n1 [Compound 111] , system human EHMT1 982-1266 (Homo sapiens)?
Response: > 7.00

Query: Please tell me: pIC50 of [2H]C([2H])([2H])CNc1cc(C)nc(Nc2cc3c(c(C4=CCNCCC4)c2)OCC3)n1 [Compound 300] , system human EHMT1 982-1266 (Homo sapiens)?
Response: > 7.00

Query: Please tell me: pIC50 of CNc1cc(C)nc(Nc2cc3c(c(C4=CCC(N)CC4)c2)OCC3)n1 (stereo not shown) [Compound 148] , system human EHMT1 982-1266 (Homo sapiens)?
Response: 5.70 to 6.30

Query: Please tell me: pIC50 of CNc1cc(C)nc(Nc2cc3c(c(C4=CCNC[C@H](O)C4)c2F)OC[C@@H]3C)n1 (stereo in doubt) [Compound 401] , system human EHMT1 982-1266 (Homo sapiens)?
Response: > 7.00

Query: Please tell me: pIC50 of CNc1cc(C)nc(Nc2cc3c(c(C4=C[C@@H]5CNC[C@@H]5C4)c2F)OCC3)n1 (racemic) [Compound 359] , system human EHMT1 982-1266 (Homo sapiens)?
Response: > 7.00
